Assay: Rate of decomposition in aqueous solution (pH 8.0, 30 degree Celsius) at 2.6 min
Assay type: ADME
Conditions: buffer, pH 8, 156 s
readout-name: k (min⁻¹)
Could you give me the number in min⁻¹? Just the number is fine.

Req: Form field: reported k of COCC(/C(C)=C/C(=N/O)C(N)=O)[N+](=O)[O-] (stereo unspecified)
Resp: 0.27

====

Assay: Rate of decomposition in aqueous solution (pH 8.0, 30 degree Celsius) at 2900 min
Format: ADME
Settings: buffer, pH 8, 2900 min
readout-name: k (min⁻¹)
Could you give me the number in min⁻¹? Just the number is fine.

Req: Form field: reported k of CC/C(=C\C(=N\O)C(N)=O)C([N+](=O)[O-])C(C)(C)C (stereo unspecified)
Resp: 0.00024

====

Exercise: state measured Log k for each of the molecules provided.
Assay: Kinetic constant log k was determined
Type: ADME
# answer = number (no unit)

Req: Form field: reported Log k of COCC(/C(C)=C/C(CNC(=O)c1cccnc1)=N/O)[N+](=O)[O-] (centres undefined)
Resp: -0.886

Req: Form field: reported Log k of COCC(/C(C)=C/C(=N/O)C(N)=O)[N+](=O)[O-] (centres undefined)
Resp: 0.569

Req: Form field: reported Log k of CC(C)/C(=C\C(=N\O)C(N)=O)C(C)[N+](=O)[O-] (centres undefined)
Resp: -2.432

Req: Form field: reported Log k of CC/C(=C\C(=N\O)C(N)=O)C(C(C)C)[N+](=O)[O-] (centres undefined)
Resp: -3

====

Experiment: Rate of decomposition in aqueous solution (pH 8.0, 30 degree Celsius) at 107 min
Type: ADME
Details: buffer, pH 8, 107 min
readout-name: k (min⁻¹)
Could you give me the number in min⁻¹? Just the number is fine.

Req: Form field: reported k of CC/C(=C\C(CNC(=O)c1cccnc1)=N\O)C(C)[N+](=O)[O-] (stereo unspecified)
Resp: 0.0065

====

Assay: Rate of decomposition in aqueous solution (pH 8.0, 30 degree Celsius) at 86 min
Assay type: ADME
Conditions: buffer, pH 8, 86 min
readout-name: k (min⁻¹)
Could you give me the number in min⁻¹? Just the number is fine.

Req: Form field: reported k of CC/C(=C\C(CNC(C)=O)=N\O)C(C)[N+](=O)[O-] (stereo unspecified)
Resp: 0.0081

====

Assay: Rate of decomposition in aqueous solution (pH 8.0, 30 degree Celsius) at 1500 min
Assay type: ADME
Conditions: buffer, pH 8, 25 h
readout-name: k

Req: Form field: reported k of CC/C(=C\C(CNC(C)=O)=N\O)C(C(C)C)[N+](=O)[O-] (stereo unspecified)
Resp: 0.00046 min⁻¹

====

Experiment: Rate of decomposition in aqueous solution (pH 8.0, 30 degree Celsius) at 1800 min
Assay type: ADME
Details: buffer, pH 8, 30 h
readout-name: k

Req: Form field: reported k of CC/C(=C\C(CNC(=O)c1cccnc1)=N\O)C(C(C)C)[N+](=O)[O-] (stereo unspecified)
Resp: 0.00038 min⁻¹

====

Test: Rate of decomposition in aqueous solution (pH 8.0, 30 degree Centigrade) at 5.3 min
Type: ADME
Details: buffer, pH 8, 318 s
readout-name: k (min⁻¹)
Could you give me the number in min⁻¹? Just the number is fine.

Req: Form field: reported k of COCC(/C(C)=C/C(CNC(=O)c1cccnc1)=N/O)[N+](=O)[O-] (stereo unspecified)
Resp: 0.13
